measured.on: mouse TRPM3α2 (mTRPM3) ion channel (Mus musculus (Mouse))
Sequence (J9SQF3 other isoform, or with tags, fused parts or gaps): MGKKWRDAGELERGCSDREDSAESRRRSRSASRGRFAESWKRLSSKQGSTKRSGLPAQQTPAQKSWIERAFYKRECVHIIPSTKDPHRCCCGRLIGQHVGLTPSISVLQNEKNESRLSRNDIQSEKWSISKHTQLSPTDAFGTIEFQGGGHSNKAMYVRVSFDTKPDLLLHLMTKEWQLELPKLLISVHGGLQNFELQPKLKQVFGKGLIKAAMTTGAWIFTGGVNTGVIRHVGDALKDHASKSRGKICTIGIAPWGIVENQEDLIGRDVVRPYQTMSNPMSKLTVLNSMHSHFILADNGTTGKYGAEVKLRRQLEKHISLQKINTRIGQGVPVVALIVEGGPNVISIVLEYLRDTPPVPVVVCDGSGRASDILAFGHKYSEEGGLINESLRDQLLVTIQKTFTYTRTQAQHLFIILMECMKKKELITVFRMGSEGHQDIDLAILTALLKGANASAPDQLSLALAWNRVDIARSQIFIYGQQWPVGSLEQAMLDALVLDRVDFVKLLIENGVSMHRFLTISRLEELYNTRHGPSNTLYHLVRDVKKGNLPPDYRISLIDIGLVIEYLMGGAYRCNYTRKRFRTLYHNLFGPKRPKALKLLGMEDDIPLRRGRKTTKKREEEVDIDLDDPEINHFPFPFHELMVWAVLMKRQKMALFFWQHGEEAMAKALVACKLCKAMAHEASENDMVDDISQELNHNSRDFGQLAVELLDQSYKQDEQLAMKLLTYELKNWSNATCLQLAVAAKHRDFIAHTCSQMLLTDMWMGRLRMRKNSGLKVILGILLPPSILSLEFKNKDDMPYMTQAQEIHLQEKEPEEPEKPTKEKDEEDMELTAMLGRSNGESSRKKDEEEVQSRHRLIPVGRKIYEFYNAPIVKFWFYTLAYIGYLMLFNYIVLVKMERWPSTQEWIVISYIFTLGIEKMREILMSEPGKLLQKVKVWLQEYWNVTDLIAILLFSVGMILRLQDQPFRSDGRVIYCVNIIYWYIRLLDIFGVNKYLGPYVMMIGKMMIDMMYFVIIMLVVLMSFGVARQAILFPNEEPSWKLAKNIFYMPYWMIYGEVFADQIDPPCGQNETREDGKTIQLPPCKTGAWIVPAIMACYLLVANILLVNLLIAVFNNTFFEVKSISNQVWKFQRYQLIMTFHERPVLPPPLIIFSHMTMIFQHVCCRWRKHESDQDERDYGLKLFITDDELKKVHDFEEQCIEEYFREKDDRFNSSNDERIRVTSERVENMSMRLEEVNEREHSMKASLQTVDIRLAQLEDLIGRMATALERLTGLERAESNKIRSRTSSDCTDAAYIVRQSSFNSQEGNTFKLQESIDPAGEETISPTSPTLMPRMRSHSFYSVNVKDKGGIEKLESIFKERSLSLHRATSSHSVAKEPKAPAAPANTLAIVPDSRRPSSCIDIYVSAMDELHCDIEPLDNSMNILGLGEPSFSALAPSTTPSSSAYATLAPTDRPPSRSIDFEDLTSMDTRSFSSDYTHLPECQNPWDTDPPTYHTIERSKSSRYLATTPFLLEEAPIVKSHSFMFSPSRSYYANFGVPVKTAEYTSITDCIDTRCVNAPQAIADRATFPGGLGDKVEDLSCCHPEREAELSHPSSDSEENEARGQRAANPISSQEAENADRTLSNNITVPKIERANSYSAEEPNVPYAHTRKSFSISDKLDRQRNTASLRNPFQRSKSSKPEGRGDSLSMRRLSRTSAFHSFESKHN
test.description: TRPM3 ion channel driven Ca2+ uptake, Fluo-4 AM assay, mTRPM3alpha2 overexpressing flip-in HEK293 cells stimulated with pregnenolone sulfate
Type: cell-based
test.conditions: PS (50 μM) stimulated, cpd 001-199
pIC50: −log10 of the molar value.
measured.metric: pIC50

The cases that follow already have their pIC50 on record.
Cc1oc2ccc(OCc3cccnc3C(F)(F)F)cc2c1C(=O)NC1(CO)CCOC1 (single isomer, unassigned)
> 6.00
Cc1ncsc1COc1ccc2oc(C)c(C(=O)NC3(CO)CCOCC3)c2c1
> 6.00
COc1ccncc1COc1ccc2oc(C)c(C(=O)NC3CCOC3)c2c1 (stereo not shown)
< 4.70
Cc1oc2c(F)cc(OCc3cccnc3C(F)(F)F)cc2c1C(=O)NC1CCNCC1(F)F (single isomer, unassigned) [cpd 176-En 2]
> 6.00
Cc1ncsc1COc1ccc2oc(C)c(C(=O)NC3(CO)CCC3)c2c1
> 6.00
Cc1oc2ccc(OCc3cccnc3C(F)(F)F)cc2c1C(=O)Nc1cnn(C)c1
> 6.00
Cc1oc2ccc(OCc3cccnc3C(F)(F)F)cc2c1C(=O)Nc1ccn(C)n1
> 6.00
Cc1oc2ccc(OCc3ccc4cnccc4c3)cc2c1C(=O)NC1CCN(C)CC1
< 4.70

In: Supply pIC50 value. Item: Cc1oc2cc(C#N)c(OCc3cccnc3C(F)(F)F)cc2c1C(=O)NC1CCNCC1(F)F (single isomer, unassigned) [195-En 1]
Out: < 4.70

In: Supply pIC50 value. Item: Cc1oc2ccc(OCc3cncc(C(F)(F)F)c3)cc2c1C(=O)N[C@H]1CCN(C(=O)OC(C)(C)C)C1
Out: < 4.70

In: Supply pIC50 value. Item: Cc1oc2ccc(OCc3cccnc3C(F)(F)F)c(C#N)c2c1C(=O)NC1CCNCC1(F)F (single isomer, unassigned)
Out: < 4.70

In: Supply pIC50 value. Item: Cc1oc2ccc(OCc3cccnc3C(F)(F)F)cc2c1C(=O)NC1CC2(CNC2)C1
Out: > 6.00

In: Supply pIC50 value. Item: Cc1oc2ccc(OCC3CCOCC3)cc2c1C(=O)O
Out: < 4.70

In: Supply pIC50 value. Item: Cc1oc2ccc(OCc3cccnc3C(F)(F)F)cc2c1C(=O)Nc1ccnn1C
Out: > 6.00

In: Supply pIC50 value. Item: Cc1csc(COc2ccc3oc(C)c(C(=O)NC4CCNC4=O)c3c2)n1 (stereo not shown)
Out: > 6.00

In: Supply pIC50 value. Item: Cc1ncsc1COc1ccc2oc(C)c(C(=O)NC3CN(C(=O)OCC(F)(F)F)CC3(F)F)c2c1 (single isomer, unassigned)
Out: > 6.00

The reported numbers originate from patent US12209081B2.
